Where these numbers come from: ChEMBL document CHEMBL5058577

System: U2OS
Experimental protocol: Multiplex assay against U2OS
Assay type: toxicity, cell-based
Conditions: human, 24 h, 1 µM, compound concentration 1 uM, replicate 2
Measured Total Cell Count, listed per entry.
Attribute measured: Total Cell Count

* CSc1ccccc1N1CCN(CCCCCC(=O)NC2CCCc3ccccc32)CC1.Cl (stereo not drawn) | 111
* CN1CCN(c2nc3cc(C(F)(F)F)ccc3n3cccc23)CC1.O=C(O)/C=C\C(=O)O.O=C(O)/C=C\C(=O)O | 136
* CC1(COc2ccc3c(c2)ncn3-c2ccc3cccc(N4CCC(N)CC4)c3n2)COC1 | 98
* COc1c(C)cc(NC(=O)c2nn(Cc3ccc(F)cc3)c3c2CN(C(=O)c2ccc[nH]2)C[C@]3(C)C(N)=O)cc1C | 111
* CN(C)CCCc1cc(C(=O)Nc2ccc(-c3ccncc3)cc2)ccc1O.Cl.Cl | 178
* Cc1ccc(/C(=C\CN2CCCC2)c2ccccn2)cc1 | 150
* COc1ccc2c(c1)C(C(=O)N(Cc1ccc(N(C)C)cc1)c1ccc(C(C)C)cc1)CCC2.Cl (stereo not drawn) | 146
* CCNC1(C(N)=O)CCN(c2ncnc3c2nc(-c2ccccc2Cl)n3-c2ccc(Cl)cc2)CC1 | 120
* O=S(=O)(c1ccccc1)c1cnc2c(N3CCNCC3)cccc2c1 [INTEPIRDINE] | 108
* Cc1nc2ccc(Oc3ccc(F)cc3)cc2c(=O)n1C[C@H]1CCCN(C(C)C)C1.Cl | 146
* CN1CCN2c3ncccc3Cc3ccccc3C2C1 (stereo not drawn) | 99
* O=C(NCCO)c1cccc(-c2cc(Nc3ccc(OC(F)(F)F)cc3)ncn2)c1 | 156
* O=C(NCC(=O)N1CC[C@H](N[C@H]2CC[C@@](O)(c3ccc(-c4ncccn4)cn3)CC2)C1)c1cccc(C(F)(F)F)c1 | 169
* CC(C)(C)c1ccc(S(=O)(=O)Nc2ccc(Cl)cc2C(=O)c2cc[n+]([O-])cc2)cc1 | 183
* C[C@H](NC(=O)c1c(C(F)F)nn(C)c1Oc1cccc(C(F)(F)F)c1)c1ccc(C(=O)O)cc1 | 147
* O=C(O)c1cc2ccccc2c(Cc2c(O)c(C(=O)O)cc3ccccc23)c1O | 139
* O=C(O)Cc1ccccc1Nc1c(Cl)cccc1Cl | 165
* CC(=O)NCCc1c(Cc2ccccc2)[nH]c2ccccc12 | 156

###

Test system: U2OS
Experimental protocol: Multiplex assay against U2OS
Format: toxicity, cell-based
Conditions: human, 24 h, 10 µM, compound concentration 10 uM, replicate 1
Attribute measured: Population Mitotic Cells (%)

• Oc1c(CN2CCN(c3ccccn3)CC2)cc(Cl)c2cccnc12 = 9
• CCNC1(C(N)=O)CCN(c2ncnc3c2nc(-c2ccccc2Cl)n3-c2ccc(Cl)cc2)CC1 [OTENABANT] = 30
• CC[C@H]1OC(=O)[C@H](C)[C@@H](O[C@H]2C[C@@](C)(OC)[C@@H](O)[C@H](C)O2)[C@H](C)[C@@H](O[C@@H]2O[C@H](C)C[C@H](N(C)C)[C@H]2O)[C@@]2(C)CC(C)=C(O2)[C@H](C)[C@@H](O)[C@]1(C)O = 32
• Cc1ccc(F)cc1C(=O)Nc1ccc(C(=O)N2Cc3cccn3Cc3ccccc32)c(Cl)c1 [LIXIVAPTAN] = 40
• N[C@@]1(C(=O)O)CO[C@H]2[C@H](C(=O)O)[C@H]21 [LY-379268] = 18
• O=C(NCCO)c1cccc(-c2cc(Nc3ccc(OC(F)(F)F)cc3)ncn2)c1 = 17
• Cc1ccc(-c2ccc(F)cc2COc2ccc(CCC(=O)O)cc2)cc1 = 5
• CCCC(CCC)C(=O)O [VALPROIC ACID] = 16
• CNC[C@H](O)c1ccc(O)c(O)c1 [EPINEPHRINE] = 5
• CC(C)(C)c1ccc(S(=O)(=O)Nc2ccc(Cl)cc2C(=O)c2cc[n+]([O-])cc2)cc1 [VERCIRNON] = 23
• Cc1ccc(/C(=C\CN2CCCC2)c2ccccn2)cc1 [TRIPROLIDINE] = 24
• CCCN1CCC[C@@H]2Cc3n[nH]cc3C[C@H]21.Cl [QUINPIROLE HYDROCHLORIDE] = 11
• Cc1ccccc1C(=O)Nc1ccc(C(=O)N2CCCC(N(C)C)c3ccccc32)cc1.Cl (stereo not drawn) = 28
• Cl.Clc1ccc2nsnc2c1NC1=NCCN1 [TIZANIDINE HYDROCHLORIDE] = 34
• CC1(COc2ccc3c(c2)ncn3-c2ccc3cccc(N4CCC(N)CC4)c3n2)COC1 [CRENOLANIB] = 6
• N#Cc1c(N)nc(SCc2csc(-c3ccc(Cl)cc3)n2)c(C#N)c1-c1ccc(OCCO)cc1 [CAPADENOSON] = 28
• O=C1COc2nccc(-c3ccccc3F)c2CN1Cc1cc(C(F)(F)F)cc(C(F)(F)F)c1 = 41
• COc1ccc2c(c1)C(C(=O)N(Cc1ccc(N(C)C)cc1)c1ccc(C(C)C)cc1)CCC2.Cl (stereo not drawn) = 28
